Biological target: mouse P2X4 receptors (Mus musculus, UniProt Q9JJX6)
Construct: host or cells: HEK 293 (recombinant, constitutively expressing)
Sequence (Q9JJX6 1-388): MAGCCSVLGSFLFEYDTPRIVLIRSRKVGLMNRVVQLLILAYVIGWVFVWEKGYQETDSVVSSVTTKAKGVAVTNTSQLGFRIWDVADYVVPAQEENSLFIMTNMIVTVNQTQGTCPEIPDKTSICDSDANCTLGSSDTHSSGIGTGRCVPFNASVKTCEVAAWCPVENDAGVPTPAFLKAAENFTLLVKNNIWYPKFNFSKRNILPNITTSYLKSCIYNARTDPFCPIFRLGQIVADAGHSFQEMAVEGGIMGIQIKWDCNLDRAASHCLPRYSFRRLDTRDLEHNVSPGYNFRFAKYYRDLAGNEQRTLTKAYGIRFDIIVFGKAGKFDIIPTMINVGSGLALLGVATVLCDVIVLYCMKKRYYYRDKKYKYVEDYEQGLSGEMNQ
Assay: Assay B: mouse P2X4 receptor cell line, Fluo8 fluorescence FLIPR (agonist Bz-ATP at EC50)
Type: cell-based
Conditions: HEK mouse P2X4 cell line, agonist Bz-ATP at EC50, average
ENDPOINT NAME: IC50

>>> df
                                   compound  endpoint_name  recorded_measurement
0  Cc1cc(NC(=O)Cc2ccccc2)cc(S(N)(=O)=O)c1Oc1cccc(Cl)c1 [Example 271]           IC50               > 16 µM
1  NS(=O)(=O)c1cc(NC(=O)Cc2ccccn2)ccc1Oc1cccc(Cl)c1 [Example 185]           IC50               > 16 µM
2  NS(=O)(=O)c1cc(NC(=O)Cc2ccccc2Cl)ccc1Oc1ccccn1 [Example 013]           IC50               > 16 µM

Ask: Endpoint output: IC50 of NS(=O)(=O)c1cc(NC(=O)Cc2ccccc2Cl)ccc1Oc1cnc(Cl)c(Cl)c1 [Example 036] . Value?
Result: > 50 µM

Ask: Endpoint output: IC50 of NS(=O)(=O)c1cc(NC(=O)Cc2ccccc2Cl)ccc1Oc1ccccc1 [Example 014] . Value?
Result: > 16 µM

Ask: Endpoint output: IC50 of NS(=O)(=O)c1cc(NC(=O)Cc2ccccc2)ccc1OCc1ccccc1 [Example 146] . Value?
Result: > 50 µM

###

Target: mouse P2X4 receptors (Mus musculus)
Construct: host or cells: HEK 293 (recombinant, constitutively expressing)
Assay: Assay B: mouse P2X4 receptor cell line, Fluo8 fluorescence FLIPR (agonist Bz-ATP at EC50)
Type: cell-based
Conditions: HEK mouse P2X4 cell line, agonist Bz-ATP at EC50, average
In this section, each of the molecules is paired with its reported mouse P2X4 Assay B avg Efficacy.
Put your answer as a value accompanied by its unit after it.

Examples with their reported mouse P2X4 Assay B avg Efficacy follow.
                                   molecule                        tested_target  recorded_measurement
0  NS(=O)(=O)c1cc(NC(=O)Cc2ccccc2Cl)ccc1OC1CCS(=O)(=O)C1 (stereo not shown)  mouse P2X4 receptors (Mus musculus)                   61%
1  NS(=O)(=O)c1cc(NC(=O)Cc2ccccc2Cl)ccc1Oc1cccc(Cl)c1  mouse P2X4 receptors (Mus musculus)                   41%
2  NS(=O)(=O)c1cc(NC(=O)Cc2ccccc2)ccc1Oc1cccc(Cl)c1  mouse P2X4 receptors (Mus musculus)                   51%

From here, focus on the item given below.
Ask: Endpoint output: mouse P2X4 Assay B avg Efficacy of CN(C)C(=O)c1cccc(CC(=O)Nc2ccc(Oc3cccc(Cl)c3)c(S(N)(=O)=O)c2)c1 . Value?
Result: 60%
